Values from patent US20240247080A1

So I've got a bunch of binders here, and I need their EC50 hNPY2R 100% hP (CreLuc) values.
- system-name: T1, NPY2 receptor (human (printed as hNPY2R), UniProt P49146 1-381)
- T1 sequence (looked up): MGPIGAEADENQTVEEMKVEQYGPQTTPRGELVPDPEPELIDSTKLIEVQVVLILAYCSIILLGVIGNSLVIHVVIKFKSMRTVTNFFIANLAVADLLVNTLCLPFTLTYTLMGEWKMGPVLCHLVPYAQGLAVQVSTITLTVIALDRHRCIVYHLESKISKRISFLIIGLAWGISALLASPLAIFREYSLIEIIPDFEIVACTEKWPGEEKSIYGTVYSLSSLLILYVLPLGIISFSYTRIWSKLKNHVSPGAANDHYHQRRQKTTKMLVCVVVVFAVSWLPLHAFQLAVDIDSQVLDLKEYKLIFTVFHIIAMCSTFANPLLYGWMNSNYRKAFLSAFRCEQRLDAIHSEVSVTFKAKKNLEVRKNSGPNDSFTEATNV
- test-method-notes: cell-based or functional assay
Non-standard residues stand in square brackets, D forms with d. No end group written: not given here. Aib = CC(C)(N)C(=O)O
Please give a number only; it is taken to be in nM.

(Q) Quick one: EC50 hNPY2R 100% hP (CreLuc) for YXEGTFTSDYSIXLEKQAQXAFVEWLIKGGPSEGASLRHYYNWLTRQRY (Aib at 2, 13, 20; NMeQ (N-methyl-L-glutamine) at 47; K28 side chain carries C20DA-gGlu-gGlu-gGlu-gGlu-gGlu-gGlu-eLys; C-terminal amide) [Compound 222] ?
(A) 41.6

(Q) Give its EC50 hNPY2R 100% hP (CreLuc) value. Item: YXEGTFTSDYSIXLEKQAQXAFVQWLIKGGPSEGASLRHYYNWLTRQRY (Aib at 2, 13, 20; K28 side chain carries C18DA-gGlu-gGlu-gGlu-gGlu-gGlu; C-terminal amide) [Compound 250]
(A) 37.4

(Q) Recorded EC50 hNPY2R 100% hP (CreLuc) for Y[Aib]EGTFTSDYSI[Aib]LEKQAQ[Aib]AFVEWLIKGGPSYYASLRHYYNWLTRQRY-NH2 (not fully specified (residue 28); also: TFA salt) [Compound 203] , please?
(A) 54.1
